molecular target: TRAP1-3; construct: designed fusion of TRAP1 and TRAP3 TPR modules, synthetic gene in pET-28b(+), E. coli C41, Ni-NTA; His-tag kept in assembly; mass 32,621 (kDa [sic]); assay: fluorescence anisotropy of NADH; details: PBS (150 mM NaCl, 50 mM phosphate) pH 7.4, 25 °C, 1 µM NADH titrated with 0-100 µM TRAP1-3; one-site fit
assay_readout: Kd (µM)

[
  {
    "compound_smiles": "NC(=O)C1=CN([C@@H]2O[C@H](COP(=O)(O)OP(=O)(O)OC[C@H]3O[C@@H](n4cnc5c(N)ncnc54)[C@H](O)[C@@H]3O)[C@@H](O)[C@H]2O)C=CC1",
    "assay_readout": "Kd",
    "value_units": "µM",
    "reported_measurement": 34.9
  }
]
